# Test system: HCC-2998 colon
# test_details: NCI-60 one-dose screen, 48 h (100 = growth as untreated, 0 = no growth, -100 = all killed)
# conditions_used: 100 µM
Compounds without any hit were thinned out: in the full panel of roughly 83,000, 20% have a hit.
growth values for the compounds below.
Return type: number; implicit unit %.

{"structure_smiles": "COc1ccc(C(=O)/C=C/c2ccc(OCc3ccc(Cl)cc3)cc2)cc1OC", "quantity_name": "growth", "test_value": 44}
{"structure_smiles": "CC(=O)/C=C/c1ccc(OCc2ccc(C(C)(C)C)cc2)cc1", "quantity_name": "growth", "test_value": 86.8}
{"structure_smiles": "CC(=O)/C=C/c1ccc(N(C)Cc2ccc(C(C)(C)C)cc2)cc1", "quantity_name": "growth", "test_value": -41.2}

Task: GET /values?readout=growth&system=HCC-2998 colon&item= O=C(/C=C/c1cccc(Oc2ccc(Cl)cc2)c1)c1ccccc1
Output: -97.8

Task: Item: COc1ccc(C(=O)/C=C/c2ccc(OCc3cccc(C(F)(F)F)c3)c(OC)c2)cc1OC
Output: 10.8

Taken from PubChem BioAssay (NCI).
